# subject of test: T1, Hsa NCOA3 CID (ACTR) (human, UniProt Q9Y6Q9-3 1040-1081)
# T1 construct: numbers count on: splice variant NCOA3-002 (ENST00000371997); pRSET vector; also called human NCOA3 CID; ACTR CID
# T1 chain (looked up): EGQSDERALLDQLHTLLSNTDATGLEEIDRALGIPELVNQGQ
# test details: ITC; iTC200, 25°C, 20 mM sodium phosphate, pH 7.4, 150 mM NaCl; both partners dialysed against the same buffer
# setup conditions: both partners purified
pKd: −log10 of the molar value.

binder	pKd
GSISPSALQDLLRTLKSPSSPQQQQQVLNILKSNPQLMAAFIKQRTAKYV (domain or fragment, human, Gly-Ser left at the N-terminus from the expression construct; NCBD domain of human CREBBP; pRSET vector; also called human CREBBP NCBD) [Hsa CREBBP NCBD]	6.46
